Listed compounds paired with reported solubility at 1 h
- PROTOCOL_NOTES: physchem
- TEST_PARAMETERS: 60 °C, aqueous buffer, thermodynamic from solid
VALUE_TYPE: solubility at 1 h (µg/mL)

COMPOUND	LIMIT_OPERATOR	QUANTITATIVE_RESULT
Nc1cc2cccnc2c2ncccc12 [5-amino-1,10-phenanthroline, reference compound]	≥	100
Nc1ccc(-c2ccc3ccc4ccc(-c5cccc(-c6ccc7ccc8ccc(-c9ccc(N)cc9)nc8c7n6)c5)nc4c3n2)cc1	=	7.5
CC(C)(C)c1ccc(-c2ccc3ccc4ccc(-c5cccc(-c6ccc7ccc8ccc(-c9ccc(C(C)(C)C)cc9)nc8c7n6)c5)nc4c3n2)cc1	=	2.9
c1cnc2c(c1)ccc1ccc(-c3cc(-c4ccc5ccc6cccnc6c5n4)cc(-c4ccc5ccc6cccnc6c5n4)c3)nc12	=	1.3
c1cc(-c2cccc(-c3ccc4ccc5cccnc5c4n3)c2)cc(-c2cccc(-c3ccc4ccc5cccnc5c4n3)c2)c1	=	3.6
c1ccc2c(-c3ccc4ccc5ccc(-c6ccc(-c7ccc8ccc9ccc(-c%10cccc%11ccccc%10%11)nc9c8n7)cc6)nc5c4n3)cccc2c1	=	1.9
c1cnc2c(c1)ccc1ccc(-c3ccc(C(c4ccc(-c5ccc6ccc7cccnc7c6n5)cc4)(c4ccc(-c5ccc6ccc7cccnc7c6n5)cc4)c4ccc(-c5ccc6ccc7cccnc7c6n5)cc4)cc3)nc12	<	0.1
